# System Under Test: Cytochrome P450 1A2 (Homo sapiens) (UniProt P05177)
# Sequence (P05177 whole entry, looked up): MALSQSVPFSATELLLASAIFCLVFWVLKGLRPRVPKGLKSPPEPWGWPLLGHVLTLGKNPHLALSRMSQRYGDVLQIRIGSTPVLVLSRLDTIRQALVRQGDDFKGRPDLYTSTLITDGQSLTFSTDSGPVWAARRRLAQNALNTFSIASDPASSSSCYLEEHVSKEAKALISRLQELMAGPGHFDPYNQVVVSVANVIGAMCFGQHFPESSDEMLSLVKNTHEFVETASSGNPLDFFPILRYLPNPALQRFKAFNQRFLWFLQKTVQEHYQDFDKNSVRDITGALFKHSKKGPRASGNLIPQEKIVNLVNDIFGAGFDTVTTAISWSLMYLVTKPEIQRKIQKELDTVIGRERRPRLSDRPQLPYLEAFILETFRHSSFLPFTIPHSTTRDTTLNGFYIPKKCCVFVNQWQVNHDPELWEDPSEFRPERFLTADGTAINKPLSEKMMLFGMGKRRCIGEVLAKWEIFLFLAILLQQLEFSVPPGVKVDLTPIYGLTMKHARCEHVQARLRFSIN
# Test: p450-cyp1a2 (AID 410)
# Reported Conditions: recombinant CYP1A2, luciferin-ME demethylation, luminescence; series mostly up to 57 µM
Records with an inconclusive call do not appear. Activity calls are given as the source filed them. The call rests on the fitted dose curve.
Reply using exactly one outcome from active, inactive

The examples below pair each entry with its known result.
Molecule | Class Name
COc1cc(/C=C\C(=O)N2CCC=CC2=O)cc(OC)c1OC | active
CCC/C=C(\CCC)C(NS(=O)(=O)c1ccc(-c2ccccc2)cc1)c1ccc(C(=O)OC)cc1 (stereo unspecified) | active
CC(C)[C@@H](CC(=O)N[C@@H]1CCNC[C@H]1C(=O)N[C@H](CC(=O)N[C@@H](CCC(=O)O)CC(=O)O)Cc1c[nH]c2ccccc12)NC(=O)C[C@H](CO)NC(=O)[C@@H]1CNCC[C@H]1N | inactive
CC(C)C[C@@H](CC(=O)N[C@@H](CCC(=O)O)CC(=O)O)NC(=O)[C@@H]1CCCC[C@H]1NC(=O)C[C@H](CCCN)NC(=O)C[C@H](Cc1ccccc1)NC(=O)[C@@H]1CCCC[C@H]1N | inactive
COC(=O)[C@@]1(Cc2ccc(OC)cc2)[C@H]2c3cc(C(=O)N4CCCC4)n(CCc4c[nH]c5cc(F)ccc45)c3C[C@H]2CN1C(=O)c1ccccc1 | active

Q) Hey, what did the test say about CC(C)C[C@@H](CC(=O)N[C@@H](CCC(=O)O)CC(=O)O)NC(=O)[C@@H]1CCCC[C@H]1NC(=O)C[C@H](CCCN)NC(=O)C[C@H](CO)NC(=O)[C@@H]1CNCC[C@H]1N ?
A) inactive

Reference source: PubChem BioAssay (NCATS)
